Attribution: paper PMC6154583

Test system: Panc89 cells
Test: MTT viability assay
Assay type: cell-based, human
Details: Homo sapiens, 48 h incubation, mean ± SD, n = 3
Protocol: The human pancreatic cancer cell lines Colo357 [61], Panc-1 [62], and MiaPaCa-2 [63] were grown in Dulbecco’s modified Eagle’s medium (DMEM). Panc89 [64] was grown in DMEM:RPMI-1640 medium in ratio 1:1. The human colon adenocarcinoma cell line HT-29 [65] was grown in McCoy’s 5A medium. […] In order to determine the cytotoxic effects of investigated inhibitors conventional MTT assay were used. […] Finally, dissolved crystals were measured spectrophotometrically at 570 nM. […]
Exam item: assign rule met to entries whose EC50 is below 6 µM and rule not met to entries at or above 6 µM. Note that a value of exactly 6 µM receives rule not met.

The following compounds have reported results that may help.
Find out if reported EC50 for COc1ccc(CCC(=O)Nc2cc(-c3nc(SC)[nH]c3-c3ccc(F)cc3)ccn2)cc1OC [11d] is less than 6 µM
rule not met

Given COc1ccc(CCC(=O)Nc2cc(-c3nc(SC)[nH]c3-c3ccc(F)cc3)ccn2)c(OC)c1 [11a] , is recorded EC50 strictly lower than 6 µM?
rule met

Item COc1cc(CCC(=O)Nc2cc(-c3nc(SC)[nH]c3-c3ccc(F)cc3)ccn2)cc(OC)c1OC [11e] : EC50 beneath 6 µM, strictly?
rule not met

Hello, is EC50 of the following compound strictly smaller than 6 µM? COc1ccc(NC(=O)Nc2cc(-c3nc(SC)[nH]c3-c3ccc(F)cc3)ccn2)c(OC)c1 [12a]
rule not met

Next:
Determine if COc1ccc(OC)c(CCC(=O)Nc2cc(-c3nc(SC)[nH]c3-c3ccc(F)cc3)ccn2)c1 [11b] shows EC50 strictly lower than 6 µM.
rule met
